target: various mutants of kinase EGFR (BaF3 cell lines stably transfected with kinase) (Homo sapiens, UniProt P00533, C797S/L858R/T790M); construct: expressed in transfected cells; host or cells: BaF3; test: Growth inhibitory activity of compounds on BaF3 cell lines stably transfected with kinase (MTS, 48 h); format: cell-based; conditions: BaF3 cells stably transfected with EGFR L858R/T790M/C797S, read-out: IC50, growth inhibition, L858R/T790M/C797S
Sequence (P00533 25-1210 T790M/C797S/L858R): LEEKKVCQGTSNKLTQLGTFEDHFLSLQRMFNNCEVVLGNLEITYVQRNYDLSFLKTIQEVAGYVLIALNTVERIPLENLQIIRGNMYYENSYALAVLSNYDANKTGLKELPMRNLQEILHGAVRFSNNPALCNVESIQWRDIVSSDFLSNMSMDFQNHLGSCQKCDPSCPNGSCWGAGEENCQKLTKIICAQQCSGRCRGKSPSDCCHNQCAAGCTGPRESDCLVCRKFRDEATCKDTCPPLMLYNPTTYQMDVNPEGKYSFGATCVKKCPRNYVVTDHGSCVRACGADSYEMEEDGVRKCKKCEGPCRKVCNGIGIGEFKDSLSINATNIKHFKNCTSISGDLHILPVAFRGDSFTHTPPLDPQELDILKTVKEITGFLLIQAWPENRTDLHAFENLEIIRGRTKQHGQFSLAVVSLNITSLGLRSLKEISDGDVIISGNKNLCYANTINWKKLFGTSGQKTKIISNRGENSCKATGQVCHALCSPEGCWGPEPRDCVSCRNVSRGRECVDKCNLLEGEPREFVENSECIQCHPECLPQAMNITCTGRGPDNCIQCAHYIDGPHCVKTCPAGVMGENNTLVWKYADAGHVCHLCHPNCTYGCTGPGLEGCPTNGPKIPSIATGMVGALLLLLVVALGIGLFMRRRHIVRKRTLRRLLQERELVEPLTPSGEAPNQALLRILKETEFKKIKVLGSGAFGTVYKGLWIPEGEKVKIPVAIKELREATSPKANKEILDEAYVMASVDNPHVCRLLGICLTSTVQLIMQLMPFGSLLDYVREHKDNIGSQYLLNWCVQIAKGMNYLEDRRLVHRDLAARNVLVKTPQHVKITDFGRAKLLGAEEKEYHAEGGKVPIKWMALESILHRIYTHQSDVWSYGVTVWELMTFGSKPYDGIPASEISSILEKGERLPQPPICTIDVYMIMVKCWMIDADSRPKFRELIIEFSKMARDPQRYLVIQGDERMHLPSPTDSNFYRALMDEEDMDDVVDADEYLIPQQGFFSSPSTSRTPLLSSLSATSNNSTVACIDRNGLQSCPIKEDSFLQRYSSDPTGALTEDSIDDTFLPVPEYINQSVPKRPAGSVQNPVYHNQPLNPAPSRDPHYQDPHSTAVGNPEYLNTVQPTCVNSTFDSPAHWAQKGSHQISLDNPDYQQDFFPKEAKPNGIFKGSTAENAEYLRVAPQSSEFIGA
READOUT LABEL: IC50

# query: IC50 of entry COc1cc(N2CCC(N3CCN(C)CC3)CC2)c(C)cc1Nc1ncc(F)c(Nc2ccc3nccnc3c2N(C)S(C)(=O)=O)n1
≤ 50 nM

# query: IC50 of entry COc1cc(N2CCC(N3CCN(C)CC3)CC2)c(C)cc1Nc1ncc(Cl)c(Nc2ccc3nccnc3c2N(C)S(=O)(=O)C(F)(F)F)n1
50 to 500 nM

# query: IC50 of entry CN1CCN(c2ccc(Nc3ncc(Br)c(Nc4ccc5nccnc5c4N(C)S(C)(=O)=O)n3)cn2)CC1
≤ 50 nM

# query: IC50 of entry CCc1cc(Nc2ncc(Br)c(Nc3ccc4nccnc4c3N(C)S(C)(=O)=O)n2)c(OC)cc1N1CCN(C)CC1
≤ 50 nM

# query: IC50 of entry CCS(=O)(=O)N(C)c1c(Nc2nc(Nc3ccc(N4CCC(N5CCN(C)CC5)CC4)cc3OC)ncc2Cl)ccc2nccnc12
50 to 500 nM

# query: IC50 of entry CCc1cc(Nc2ncc(Br)c(Nc3ccc4nccnc4c3N(C3CC3)S(C)(=O)=O)n2)c(OC)cc1N1CCC(N(C)C)C1 (stereo not shown)
≤ 50 nM

# query: IC50 of entry COc1cc(N2CCN(C)CC2)c(C)cc1Nc1ncc(Cl)c(Nc2ccc3nccnc3c2N(C)S(C)(=O)=O)n1
≤ 50 nM

* * *

# IC50 per record follows
Biological target: various mutants of kinase EGFR (BaF3 cell lines stably transfected with kinase) (Homo sapiens, UniProt P00533, L858R/T790M)
Construct: expressed in transfected cells; host or cells: BaF3
Sequence (P00533 25-1210 T790M/L858R): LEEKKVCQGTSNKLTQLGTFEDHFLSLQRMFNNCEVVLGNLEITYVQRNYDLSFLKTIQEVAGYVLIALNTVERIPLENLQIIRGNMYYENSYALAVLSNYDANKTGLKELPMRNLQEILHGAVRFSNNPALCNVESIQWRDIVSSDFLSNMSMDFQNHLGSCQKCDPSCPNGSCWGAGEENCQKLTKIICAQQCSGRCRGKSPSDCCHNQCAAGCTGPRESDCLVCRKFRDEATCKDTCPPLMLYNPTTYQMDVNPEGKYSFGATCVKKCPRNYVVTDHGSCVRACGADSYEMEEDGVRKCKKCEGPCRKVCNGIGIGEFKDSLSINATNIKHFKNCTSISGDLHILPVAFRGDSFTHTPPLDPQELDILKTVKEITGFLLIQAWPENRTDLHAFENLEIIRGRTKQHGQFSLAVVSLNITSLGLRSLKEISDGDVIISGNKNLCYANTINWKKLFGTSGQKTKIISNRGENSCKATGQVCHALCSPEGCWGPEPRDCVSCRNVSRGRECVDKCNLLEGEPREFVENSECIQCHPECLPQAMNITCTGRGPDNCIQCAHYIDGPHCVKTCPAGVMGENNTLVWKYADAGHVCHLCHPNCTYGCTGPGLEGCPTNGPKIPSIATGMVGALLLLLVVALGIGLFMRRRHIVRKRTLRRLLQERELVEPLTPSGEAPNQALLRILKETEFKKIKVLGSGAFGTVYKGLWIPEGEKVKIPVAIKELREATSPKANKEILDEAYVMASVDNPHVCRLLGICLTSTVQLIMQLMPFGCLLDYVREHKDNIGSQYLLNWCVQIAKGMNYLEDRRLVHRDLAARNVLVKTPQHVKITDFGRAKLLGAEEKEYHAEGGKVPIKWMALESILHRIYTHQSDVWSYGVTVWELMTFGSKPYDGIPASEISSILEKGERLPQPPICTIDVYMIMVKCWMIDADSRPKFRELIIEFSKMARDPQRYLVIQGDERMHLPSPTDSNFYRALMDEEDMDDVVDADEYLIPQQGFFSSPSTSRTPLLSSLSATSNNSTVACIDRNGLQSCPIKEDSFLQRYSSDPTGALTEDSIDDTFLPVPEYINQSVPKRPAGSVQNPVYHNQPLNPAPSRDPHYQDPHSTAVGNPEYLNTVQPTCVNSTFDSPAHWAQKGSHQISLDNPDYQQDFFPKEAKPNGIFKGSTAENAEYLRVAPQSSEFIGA
Test: Growth inhibitory activity of compounds on BaF3 cell lines stably transfected with kinase (MTS, 48 h)
Format: cell-based
Details: BaF3 cell line stably transfected with EGFR L858R/T790M, read-out: L858R/ T790M growth inhibitory activity IC50
Description: The activity of compounds against various mutants of kinase EGFR was evaluated by their effect of inhibiting growth of BaF3 cell lines stably transfected with kinase. The specific test method was given as follows: […] 3) Compound test: cells were incubated into a 96-well culture plate, the volume of cytosol was 90 µL, and then 10 µL of the compound at each gradient concentration was added. […] OD values at 490 nm were measured by a microplate reader (VARIOSKAN FLASH, Thermo). […]

Some solved entries appear below for comparison.
compound="COc1cc(N2CCC(N(C)C)C2)c(C)cc1Nc1nc(Nc2ccc3nccnc3c2N(C)S(C)(=O)=O)c2[nH]ccc2n1 (stereo not shown) [II-1-35]" readout_label=IC50 value_reported="500 to 2500 nM"
compound="CCc1cnc(Nc2ccc(N3CCC(N4CCN(C)CC4)CC3)cc2OC)nc1Nc1ccc2nccnc2c1N(C)S(C)(=O)=O [Compound I-316]" readout_label=IC50 value_reported="50 to 500 nM"
compound="CCc1cc(Nc2nc(Nc3ccc4nccnc4c3N(C)S(C)(=O)=O)c3sccc3n2)c(OC)cc1N1CCN(C)CC1 [II-1-15]" readout_label=IC50 value_reported="500 to 2500 nM"

# query: IC50 of entry C=Cc1cc(Nc2nc(Nc3ccc4nccnc4c3N(C)S(C)(=O)=O)c3[nH]ccc3n2)c(OC(F)(F)F)cc1N1CCC(N2CCN(C)CC2)CC1 [II-1-23]
50 to 500 nM

# query: IC50 of entry CCc1cc(Nc2ncc(Br)c(Nc3ccc4nccnc4c3N(C)S(C)(=O)=O)n2)c(OC)cc1N1CCN(C2CN(C)C2)CC1 [Compound I-398]
≤ 50 nM

# query: IC50 of entry CCc1cc(Nc2ncc(CC)c(Nc3ccc4nccnc4c3N(C)S(C)(=O)=O)n2)c(OC)cc1N1CCN(C)CC1 [Compound I-322]
≤ 50 nM

# query: IC50 of entry CCc1cc(Nc2ncc(Br)c(Nc3ccc4nccnc4c3NS(C)(=O)=O)n2)c(OC(F)(F)F)cc1N1CCC(N2CCN(C)CC2)CC1 [Compound I-405]
50 to 500 nM

The reported measurements were obtained from patent US20230310428A1.
